# experiment: yeast display, Sf9 membrane polyspecificity reagent, FACS + sequencing; frameworks hold sequencing errors
propertyLabel: polyreactivity (PSR sort gate)

Examples with their reported polyreactivity (PSR sort gate) follow.
>>> observedmeasurement("QVQLVESGGGLVKAGGSLRLSCAASGRICSSYAMGWYRQAPGKERELVAAISRGGGRTYYADSVKGRFTNSRDNAKNTVYLQMNSLKPEDTAGYYCAAGRRYASEMDYWGLGTQVTVSS")
"high polyreactivity"
>>> observedmeasurement("QVQLVESVGGLVQAGGSLRLSCAASGLTFRKYAMGWYRQAPGKERELVAGISSGGSTYYADSVKGRFTISRDNAKNTVYLQMNSLKPEDTAVYYCAAKALRTMYYWGQGTQVTVSS")
"high polyreactivity"
>>> observedmeasurement("QVQLVESGGGLVQAGGSLRLSCSASGSTFGRYAMGWYRQAPGKERELVAAISARGGSTYYADSVKGRFTISRDNAKNTVYLQMNSLKPEDTAVYYCNVDYLLHGGRFDYWGQGTQVTVSS")
"high polyreactivity"
>>> observedmeasurement("QVQLVESGGGLVQAGGSLRLSCAASGSIFPYYAMGWYRPAPGKERELVAGITSGTRTNYADSVKGRFTISRDNAKNTVYLQMNSLKPEDTAVYYCAAYYRAYRRDYYWGQGTQVTVSS")
"high polyreactivity"
>>> observedmeasurement("QVQLVESGGGLVQAGGSLRLSCAASGSIFQYYAMGWYRQAPGKERELVAAISSGDTTNYADSVKGRFTISRDNAKNTVYLQMNSLKPEDTAVYYCNAEGGWYDWDDYWGQGTQVTVSS")
"low polyreactivity"

Note polyreactivity (PSR sort gate) for the sequence shown: `HVQLVESGGGLVQAGGSLRLSCAHSGIIFRTNAMGWYRQAPGKEREFVAAISAGATRKYYADSVKGRFTISRDTAKNTVYLQMNSLKPEDTAVYYCAAASGYDYWGQGTQVTVSS`
high polyreactivity

Fill in polyreactivity (PSR sort gate) for record `QVQLVESGGGLVQAGGSLRLSCAASGRIFLKYAMGWYRQAPGKERELVAAISRRGASTYYADSVKGRFTISRDNSKNTVYLQMNSLKPEDTAVYYCKARTSSGMDYWGQGTQVTVSS`
high polyreactivity

Specify polyreactivity (PSR sort gate) for `QVQLVESGGGLVQAGGSLRLSCAASGRILKYYAMAWYREAPGKERELVAAIWSGGSTYYADSVKGRFTISRDNAKNTVYLLMNSLKPEDTAVYYCNAEYQWGGYGYDYWGQGTQVTVSS` and stop.
low polyreactivity

Dear colleague, please send me the reported polyreactivity (PSR sort gate) for `QVQLVESGGGLVQAGGSLRLSCAASGSTFQVYAMGWYRQAPGKERELVASITSGGSTYADSVKGRFTISRDNAKNTVYLQINSLKPEDTAVYYCAAGGYFYPYTYDYWGQGTQVTVSS` when you can.
low polyreactivity

Give the reported value of polyreactivity (PSR sort gate) for this record: `QVQLVESGGGLVQAGGSLRLSCAASGSTFTSYAMGWYRQAPGKERELVAAISRRGTSTYYADSVKGRFTISRDNAKNTVYLQMNSLKPEDTAVYYCAADGYYWEYYYWGQVTQVTVSS`
high polyreactivity

In one line, give reported polyreactivity (PSR sort gate) of the entry `QVQLVESGGGLVQAGGSLRLSCAASGSTFTPYVMGWYRQAPGKEREMVASITGGGGSTYADSVKGRFTISRDNAKNTVYVQMNSLKPEDTAVYYCAAELYRSNVYHYDYWGQGSQVTVSS` .
high polyreactivity
